biological target: 4-hydroxyphenylpyruvate dioxygenase (Rattus norvegicus, UniProt P32755); experiment: Inhibition of rat 4-hydroxyphenylpyruvate dioxygenase
Sequence (P32755 whole entry): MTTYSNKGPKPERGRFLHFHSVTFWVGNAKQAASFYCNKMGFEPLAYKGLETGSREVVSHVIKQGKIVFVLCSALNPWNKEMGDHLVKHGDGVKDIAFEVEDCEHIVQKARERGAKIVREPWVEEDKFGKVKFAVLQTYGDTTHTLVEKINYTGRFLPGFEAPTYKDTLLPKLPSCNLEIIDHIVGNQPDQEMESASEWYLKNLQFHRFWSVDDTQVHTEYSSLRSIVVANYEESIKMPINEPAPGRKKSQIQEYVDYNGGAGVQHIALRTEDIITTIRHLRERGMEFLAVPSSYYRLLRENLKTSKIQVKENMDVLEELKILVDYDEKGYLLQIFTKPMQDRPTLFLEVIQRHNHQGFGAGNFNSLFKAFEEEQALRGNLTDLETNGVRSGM
Property Measured: IC50 (µM)
API: value field is a number in µM; no unit string.

Item O=C(NCCCCC1C(=O)/C(=C(\O)C2CC2)C(=O)N1Cc1ccc(F)cc1)c1ccc(Cl)nc1 (stereo unspecified) with 4-hydroxyphenylpyruvate dioxygenase (Rattus norvegicus, UniProt P32755) - IC50?
3.9
